The compounds listed here are annotated with their TI.
Test system: herpesvirus
Format: cell-based
Output spec: single numeric token, no unit.

Inquiry: Entry CC(C)OC1CC[C@H](OCCCCCNC(=N)N)[C@@H](COCCCCCNC(=N)N)O1 (some centres unmarked) [Example 7] , system herpesvirus: what TI was measured?
Reply text: 5.17

Pending compound:
Inquiry: Entry CCOC1CC[C@H](OCCCCCNC(=N)N)[C@@H](COCCCCCNC(=N)N)O1 (some centres unmarked) [Example 6] , system herpesvirus: what TI was measured?
Reply text: 17.28

====

System: herpesvirus
Assay type: cell-based
The compounds listed here are annotated with their TI.
Output spec: single numeric token, no unit.

Solved cases below.
Inquiry: I have this compound here, COC1CC[C@H](OCCCNC(=N)N)[C@@H](COCCCNC(=N)N)O1 (stereo partly drawn) , and I need its recorded TI.
Reply text: 12.29

Inquiry: I have this compound here, CCOC1CC[C@H](OCCCNC(=N)N)[C@@H](COCCCNC(=N)N)O1 (stereo partly drawn) , and I need its recorded TI.
Reply text: 9.96

Pending compound:
Inquiry: I have this compound here, N=C(N)NCCCOC[C@H]1OC(OCCO)CC[C@@H]1OCCCNC(=N)N (stereo partly drawn) , and I need its recorded TI.
Reply text: 31.22

====

System: herpesvirus
Type: cell-based
The compounds listed here are annotated with their TI.

Solved cases below.
Inquiry: Entry CCOCCOCCOC1CC[C@H](OCCCNC(=N)N)[C@@H](COCCCNC(=N)N)O1 (stereo partly drawn) , system herpesvirus: what TI was measured?
Reply text: > 20

Inquiry: Entry N=C(N)NCCCOC[C@H]1OCCC[C@@H]1OCCCNC(=N)N , system herpesvirus: what TI was measured?
Reply text: ~ 350

Pending compound:
Inquiry: Entry N=C(N)NCCCOC[C@H]1OC(OCCCNC(=N)N)CC[C@@H]1OCCCNC(=N)N (stereo partly drawn) , system herpesvirus: what TI was measured?
Reply text: > 50
